Measurement Target: DNA repair protein RAD51 homolog 1 (Homo sapiens)
Sequence (Q06609 whole entry): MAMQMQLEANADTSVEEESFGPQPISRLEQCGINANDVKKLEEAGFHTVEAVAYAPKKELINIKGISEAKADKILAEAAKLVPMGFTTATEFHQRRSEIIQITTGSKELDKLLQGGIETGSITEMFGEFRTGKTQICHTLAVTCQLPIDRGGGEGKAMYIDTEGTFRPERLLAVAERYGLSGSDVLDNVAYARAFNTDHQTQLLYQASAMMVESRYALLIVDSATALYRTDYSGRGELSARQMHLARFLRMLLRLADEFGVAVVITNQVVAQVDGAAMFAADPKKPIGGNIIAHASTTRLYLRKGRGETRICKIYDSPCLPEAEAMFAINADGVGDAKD
Procedure Summary: Inhibition of biotinylated BRC4 peptide binding to His-tagged human RAD51 expressed in Escherichia coli Rosetta(DE3) pLysS cells assessed as BRC4-RAD51 protein -protein interaction by competitive ELISA
Endpoint: EC50

Use these answered entries as a reference point.
1) NCCC(=O)N1N=C(c2c(-c3ccccc3)c3cc(Cl)ccc3[nH]c2=O)CC1c1ccc(F)cc1 (racemic)
Not Active
2) CC(=O)N1N=C(c2c(-c3ccccc3)c3cc(Cl)ccc3[nH]c2=O)CC1c1ccc(C(F)(F)F)cc1 (racemic)
Not Active
3) O=C(O)CCC(=O)N1N=C(c2c(-c3ccccc3)c3ccccc3[nH]c2=O)CC1c1ccc(Br)cc1 (racemic)
Not Active
4) COc1ccc(C2CC(c3c(-c4ccccc4)c4ccccc4[nH]c3=O)=NN2C(=O)CCC(=O)O)cc1 (racemic)
Not Active

What the record says about O=C(O)CCC(=O)N1N=C(c2c(-c3ccccc3)c3ccccc3[nH]c2=O)CC1c1ccc(Cl)cc1 (racemic) : EC50 is Not Active

// EC50 value for CCCn1cc2cc(C3CC(c4c(-c5ccccc5)c5cc(Cl)ccc5[nH]c4=O)=NN3C(=O)CCC(=O)O)ccc2n1 (racemic) : Not Active

Lookup result for COc1ccc(C2CC(c3c(-c4ccccc4)c4cc(Cl)ccc4[nH]c3=O)=NN2C(=O)CCC(=O)O)cc1F (racemic) ; measured EC50: Not Active
